target: T1, cynomolgus FolR1 ECD-AcTev-Fcknob-Avi tag + Fc hole, biotinylated monomeric Fc fusion (cynomolgus, UniProt P0DOX5 223-449 = IgG part); assay: SPR ProteOn, Fab analyte;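 note: recombinant antigens immobilized, purified Fab two-fold dilutions injected in parallel channels, 200 s association and 600 s dissociation, buffer-only channel as in-line reference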
T1 construct: also called cyFolR1; cyno FolR1-Fc
Documented Kd across a set of binders
reportedProperty: Kd (µM)

[[record]]
binder = "15H7 Fab (Fab, V domains shown) VH: QVQLVQSGAEVKKPGASVKVSCKASGYTFTSYYMHWVRQAPGQGLEWMGIINPSGGSTSYAQKFQGRVTMTRDTSTSTVYMELSSLRSEDTAVYYCARNYYLFSTSFDYWGQGTLVTVSS VL: QAVVTQEPSLTVSPGGTVTLTCGSSTGAVTTSNYANWVQEKPGQAFRGLIGGTNKRAPGTPARFSGSLLGGKAALTLSGAQPEDEAEYYCALWYSNLWVFGGGTKLTVL"
reportedproperty = "Kd"
valueobserved = 0.0725

[[record]]
binder = "16A3 Fab (Fab, V domains shown) VH: QVQLVQSGAEVKKPGASVKVSCKASGYTFTSYYMHWVRQAPGQGLEWMGIINPSGGSTSYAQKFQGRVTMTRDTSTSTVYMELSSLRSEDTAVYYCARNYYAGVTPFDYWGQGTLVTVSS VL: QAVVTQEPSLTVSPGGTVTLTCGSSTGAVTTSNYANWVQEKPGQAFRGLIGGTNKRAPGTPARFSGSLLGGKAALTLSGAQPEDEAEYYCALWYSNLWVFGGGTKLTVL"
reportedproperty = "Kd"
valueobserved = 0.018

[[record]]
binder = "19E5 Fab (Fab, V domains shown) VH: QVQLVQSGAEVKKPGASVKVSCKASGYTFTSYYMHWVRQAPGQGLEWMGIINPSGGSTSYAQKFQGRVTMTRDTSTSTVYMELSSLRSEDTAVYYCARGEWRRYTSFDYWGQGTLVTVSS VL: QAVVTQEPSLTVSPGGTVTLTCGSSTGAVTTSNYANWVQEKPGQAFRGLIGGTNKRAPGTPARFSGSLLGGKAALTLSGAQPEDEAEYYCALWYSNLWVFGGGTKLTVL"
reportedproperty = "Kd"
valueobserved = 0.276

[[record]]
binder = "16F12 Fab (Fab, V domains shown) VH: QVQLVQSGAEVKKPGASVKVSCKASGYTFTSYYMHWVRQAPGQGLEWMGIINPSGGSTSYAQKFQGRVTMTRDTSTSTVYMELSSLRSEDTAVYYCARNFTVLRVPFDYWGQGTLVTVSS VL: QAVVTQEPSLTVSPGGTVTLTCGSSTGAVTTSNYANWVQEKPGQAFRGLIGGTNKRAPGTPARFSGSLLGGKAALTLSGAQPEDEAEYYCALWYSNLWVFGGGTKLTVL"
reportedproperty = "Kd"
valueobserved = 0.0909

[[record]]
binder = "18D3 Fab (Fab, V domains shown) VH: QVQLVQSGAEVKKPGASVKVSCKASGYTFTSYYMHWVRQAPGQGLEWMGIINPSGGSTSYAQKFQGRVTMTRDTSTSTVYMELSSLRSEDTAVYYCARNYYTGGSSAFDYWGQGTLVTVS VL: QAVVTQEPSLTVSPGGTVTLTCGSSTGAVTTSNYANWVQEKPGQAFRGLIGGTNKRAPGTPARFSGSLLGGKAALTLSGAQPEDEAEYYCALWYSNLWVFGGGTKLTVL"
reportedproperty = "Kd"
valueobserved = 0.0402

[[record]]
binder = "15A1 Fab (Fab, V domains shown) VH: QVQLVQSGAEVKKPGASVKVSCKASGYTFTSYYMHWVRQAPGQGLEWMGIINPSGGSTSYAQKFQGRVTMTRDTSTSTVYMELSSLRSEDTAVYYCARNYYIGVVTFDYWGQGTLVTVSS VL: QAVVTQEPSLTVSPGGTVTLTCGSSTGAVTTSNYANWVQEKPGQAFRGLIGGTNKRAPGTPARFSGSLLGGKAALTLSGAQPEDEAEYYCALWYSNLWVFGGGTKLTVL"
reportedproperty = "Kd"
valueobserved = 0.0173

